meta.source: the supplement of paper PMC9170038

Recorded apparent KD of MS2 coat protein, one value per entry.
# System: MS2 coat protein
# methodSummary: apparent KD of MS2 coat protein; designed switch direction (-1 OFF switch, 1 ON switch): -1; higher = weaker reporter binding
# conditionNotes: input ligand: FMN 200 uM
Remember to put the unit after the number in your answer.

These recorded examples may help you get a feel for the data.
inputsequence="UAUUAUCAAGCUAGAUCCCACAUGAGGAUCACCCAUGUGCUCGUCUUAAUUCCAGAAUUACUGGGCUCUCGUCUUAU [JR_STOV1_Sub091] (Eterna round: R97, puzzle: Sensor, turn-off variant 1)" targetofassay="MS2 coat protein" valuetype="apparent KD of MS2 coat protein" reportedmeasurement="45.5 nM"
inputsequence="CAUACACAUGAGGAUCACCCAUGUGAGGAUAUUCGCGCGCGCGCCCGGGCGCGCGCGCGGAGAAGGCACGUGCG [My first try] (Eterna round: R97, puzzle: Exclusion 1)" targetofassay="MS2 coat protein" valuetype="apparent KD of MS2 coat protein" reportedmeasurement="76.7 nM"
inputsequence="ACAAGCUUUUAGAUUUUCAACAUGAGGAUCACCCAUGUUCGUCUUAUGCUAGUGCUAGUGCGGUGUACUGGUAUUGG [JL TOV1 3.79 sellena mod] (Eterna round: R97, puzzle: Sensor, turn-off variant 1)" targetofassay="MS2 coat protein" valuetype="apparent KD of MS2 coat protein" reportedmeasurement="19.2 nM"

Item: CACUUACAUGAGGAUCACCCAUGUGAGGAUAUCGUGACCUGACGAGAAGUCAAUGUCACGAGAAGGCACGUGGG [Exclusion 1 (Mod 3 solution 97 by Eternabot)] (Eterna round: R97, puzzle: Exclusion 1) Test system: MS2 coat protein Read-out: apparent KD of MS2 coat protein Value: ?
11.9 nM

###

# Tested on: MS2 coat protein
# methodSummary: apparent KD of MS2 coat protein, switch ON state; designed switch direction (-1 OFF switch, 1 ON switch): -1; higher = weaker reporter binding
# conditionNotes: FMN input: 0 or 200 uM; Eterna round: R93 (includes R88 designs)
valueType: apparent KD of MS2 coat protein (nM)
Answer with a number only, understood to be in nM.

inputsequence="AAAAAGGCAGGAUAUGCAUACCCACGGAAAAAAAGGUUGGGACAUGAGGAUCACCCAUGUAGAAGGGCCAAAAA [Dora Explored 13 - Jieux - Exclusion 2]" valuetype="apparent KD of MS2 coat protein" measureunit=nM reportedmeasurement=43.4
inputsequence="AGGAGACAUGAGGAUCACCCAUGUUAGGAUAUGAACGAAAUAAAAUAAAAAUAAAAGUUCAGAAGGAACGAAAA [Mat - Exclusion 1 - Eli mod - D10]" valuetype="apparent KD of MS2 coat protein" measureunit=nM reportedmeasurement=34.6
inputsequence="AAAAAACAUGAGGAUCACCCAUGUAAGGAUAUGCUCGUGCGAAAAGCACAAAAAAAGAGCAGAAGGUACAAAAA [66%, Wbt, 39]" valuetype="apparent KD of MS2 coat protein" measureunit=nM reportedmeasurement=15.2
inputsequence="AACAGUACAGGAUAUACAUGAGGAUCACCCAUGUGAAAAUUAAGUGGCGAACCACAAUGUAGAAGGGUACUGGA [Mat - Exclusion 3 - Eli mod - D47]" valuetype="apparent KD of MS2 coat protein" measureunit=nM reportedmeasurement=81.9
inputsequence="CAAAGGUGAGGAUAUACAAAACUAUGACGAAAGUCAUAAAAACAUGAGGAUCACCCAUGUAGAAGGCACCACAA [E2 64% 2]" valuetype="apparent KD of MS2 coat protein" measureunit=nM reportedmeasurement=31.6
inputsequence="AGCUAGUGAGGAUAUACGAACAAGUCAACGGACUGUAAGGGACAUGAGGAUCACCCAUGUAGAAGGCACUAGCA [Diamond 58]" valuetype="apparent KD of MS2 coat protein" measureunit=nM reportedmeasurement=29.4

Item: GCAAAGUGAGGAUAUACGCGAACAAAAAUAAAAAAGAAAGCGUAGAAGGCACAUGAGGAUCACCCAUGUCCAGC [Mat - Exaclusion 4 - Eli mod - D77] Test system: MS2 coat protein Read-out: apparent KD of MS2 coat protein Value: ?
23.7

Likewise for AAAAAUGGAGGAUAUACAUGAGGAUCACCCAUGUGUAAAAAAAAUUACACAAAAGAAAGUAGAAGGCCAUAAAG [Mat - Exclusion 3 - Mayanna mod - D108] ?
59.3

Likewise for AAAAAUAGAGGAUAUACAUGAAAAAAAAAAAAAAAAAAAAAACAUGAGGAUCACCCAUGUAGAAGGCUAAAAAA [double AU!] ?
30.8

Likewise for AAGAACCGAGGAUAUACAUGAGGAUCACCCAUGUAAAAGAAAGAAAAGGGAAAGAAAAGUAGAAGGCGGAAGAA [Aakheperenre Thutmose II] ?
42.8

Likewise for AAAAAGUCAGGAUAUGUAGCAAAAGGUGAUCAAAAAAAGCUACAGAAGGGACAUGAGGAUCACCCAUGUAAAAA [Ex4: 937] ?
139
